Please respond with reported recombinant UMI read abundance (log10) for every item in the list.
# protocol_notes: recombinant UMI read abundance after kanamycin selection (control-corrected) (log10(CPM+1)); higher = more efficient recombination; extreme values may be limits of the assay; sequences stand for … in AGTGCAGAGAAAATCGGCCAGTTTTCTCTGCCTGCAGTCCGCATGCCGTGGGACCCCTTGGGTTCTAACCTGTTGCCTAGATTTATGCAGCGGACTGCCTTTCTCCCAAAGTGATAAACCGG…AGGTTGGTTTCACT; site = the 11-nt donor

Look at this sequence and give its reported recombinant UMI read abundance (log10). ATACTATCATGGACCGGTTTTCCCGGTAATCCGTATTTGCA (site ACAGTATCTTG)
1.72

Now the same for GGCCACCCATGGACCGGTTTTCCCGGTAATCCGTATTTGTG (site GGCCACCCTTA)
0.0265

One more sequence: ATGTTGGCATGGACCGGTTTTCCCGGTAATCCGTATTTGGC (site ATGTTGGCTGC)
2.68

Similarly, ACCTAGCCATGGACCGGTTTTCCCGGTAATCCGTATTTGGG (site ACCTAGGCTCC) ?
0.0311

// same read-out, input: ACTATAACATGGACCGGTTTTCCCGGTAATCCGTATTTGAG (site ACTATAACTCT)
1.72

----------
# protocol_notes: recombinant UMI read abundance after kanamycin selection (control-corrected) (log10(CPM+1)); higher = more efficient recombination; extreme values may be limits of the assay; sequences stand for … in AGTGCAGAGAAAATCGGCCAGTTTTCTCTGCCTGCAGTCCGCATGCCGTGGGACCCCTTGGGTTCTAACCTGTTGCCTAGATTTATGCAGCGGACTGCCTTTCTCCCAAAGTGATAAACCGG…AGGTTGGTTTCACT; site = the 11-nt donor
Kindly state recombinant UMI read abundance (log10) for each of the entries shown.

Fill in: recombinant UMI read abundance (log10) of TATGCCACATGGACCGGTTTTCCCGGTAATCCGTATTTGTA (site TATGCCACTTA) is ___
0.598

Param item: CGAGGACCATGGACCGGTTTTCCCGGTAATCCGTATTTGCG (site CGAGGACCTCT)
0.00945

Lookup TGTACCTCATGGACCGGTTTTCCCGGTAATCCGTATTTGGG (site TGTACCTCTCC)
0.0503

Cool, now AACCGTCCATGGACCGGTTTTCCCGGTAATCCGTATTTGAT (site AACCGACCTAT)
0

Field entry: ACATCTACATGGACCGGTTTTCCCGGTAATCCGTATTTGCG (site ACATCTACTCG)
1.2

----------
# protocol_notes: recombinant barcode read abundance after kanamycin selection (control-corrected) (log10(CPM+1)); higher = more efficient recombination; sequences stand for … in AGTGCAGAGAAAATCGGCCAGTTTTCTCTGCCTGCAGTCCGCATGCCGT…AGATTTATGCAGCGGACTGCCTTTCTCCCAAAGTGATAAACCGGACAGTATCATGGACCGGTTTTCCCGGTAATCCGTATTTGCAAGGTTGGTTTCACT; site = the 11-nt target
measured_metric: recombinant barcode read abundance (log10)

What does the record list as recombinant barcode read abundance (log10) for CACTTAACTTGGGTTCTAACCTGTTGCCT (site CACTTACCTAG) ?
0

What do you have for AAGAACACTTGGGTTCTAACCTGTTGCCT (site CAGAACACTAG) ?
0.46

Okay, and CTAAGCTCTTGGGTTCTAACCTGTTGCTG (site CTAAGCTCTAA) ?
0.259

AAGAACACTTGGGTTCTAACCTGTTGCCT (site TAGAACACTAG) , same question.
1.19

Another sequence to look at: GTTTAATCTTGGGTTCTAACCTGTTGCCT (site GTTTAGTCTAG)
0.233

Proceed to TAGCCGTCTTGGGTTCTAACCTGTTGCAC (site TAGCCGTCTGT)
1.4

Param item: CGGCCCTCTTGGGTTCTAACCTGTTGCCT (site CGGCCCTCTAG)
2.52

Do the same for GTATCCGCTTGGGTTCTAACCTGTTGCCA (site CGGCTGCCTCC) please
0.0649

What about this sequence? ATCAACCCTTGGGTTCTAACCTGTTGCCA (site TCGTCTACTGA)
0.375

Now consider TAGACTGCTTGGGTTCTAACCTGTTGCCT (site TAGGCTGCTAG) and answer again.
0.107
